Data origin, for the record: ChEMBL document CHEMBL3433997

Give measured inhibition for each item. Keep answers brief.
molecular target: Hexose transporter 1 (Plasmodium falciparum) (UniProt O97467); experiment: ST_JUDE_LEISH: Cytotoxicity at 2uM final concentration against transgenic Leishmania Mexicana promastigotes LmPfHT that are glucose transport deficient and complemented with the Plasmodium falciparum hexose transporter. Activity is measured by DNA content using SYBR green in vitro; assay type: functional
Answers are plain numbers, in %.

Please review the entries below; each comes with its answer.
> print(dat)
                                   compound                        measurement.target  result
1  O=C(/C=C/c1ccc(Cl)c(Cl)c1)NCCCCCN1CCC(CCNC(=O)/C=C/c2ccccc2F)CC1  Hexose transporter 1 (Plasmodium falciparum) (UniProt O97467)   -1.13
2  O=C(/C=C/c1ccc(Cl)cc1)NCCCCCN1CCC(C(=O)Nc2cccc(Cl)c2)CC1  Hexose transporter 1 (Plasmodium falciparum) (UniProt O97467)     2.2
3  CCN(CC)CCCC(C)Nc1c2ccccc2nc2ccc3ccccc3c12 (centres undefined)  Hexose transporter 1 (Plasmodium falciparum) (UniProt O97467)    2.89
4  COc1ccc2nccc([C@@H](O)CN3CCC(NCCOc4cccc(C(F)(F)F)c4)CC3)c2c1  Hexose transporter 1 (Plasmodium falciparum) (UniProt O97467)    12.5
5  COc1ccccc1CNC(=O)c1nn(-c2ccc(Cl)cc2)c(=O)c2ccccc12  Hexose transporter 1 (Plasmodium falciparum) (UniProt O97467)    4.83

Please supply inhibition for each of the following items, keeping them in order.
1. COc1ccc(Cl)cc1N1CCN(CCCNC(=O)c2ccc(-c3nc4cc(Cl)c(F)cc4[nH]3)s2)CC1
2. CN1CCN(CC(=O)Nc2ccc(-c3cccc(-c4nc5cc(F)ccc5[nH]4)c3)cc2)CC1
3. Fc1cccc(COc2ccc(Nc3ncnc4sc(C#C[C@H]5CC[C@H](CNCC(F)(F)F)N5)cc34)cc2Cl)c1
4. COc1ccc(N2CCN(CCCC/C=C/c3ccc(NC(=O)c4cc(Cl)cc(Cl)c4)cc3)CC2)c(OC)c1

5.41
0.74
1.52
1.17

* * *

target: Solute carrier family 2, facilitated glucose transporter member 1 (Homo sapiens); experiment: ST_JUDE_LEISH: Cytotoxicity at 2uM final concentration against transgenic Leishmania Mexicana promastigotes LmGLUT1 that are glucose transport deficient and complemented with the human glucose transporter GLUT1. Activity is measured by DNA content using SYBR green in vitro; format: functional
Result Type: inhibition (%)
One number for each entry, in %.

Please review the entries below; each comes with its answer.
> print(dat)
                                   molecule  result
1  COc1cccc(-n2ncc3c(N/N=C/c4ccc(CN(C)CCN(C)C)cc4)ncnc32)c1    10.7
2            CCCc1cc2c3c(N)nc(N)nc3ccc2n1CC    6.73
3  O=C(COc1ccccc1Cc1ccccc1)Nc1cc(Cl)ccc1-n1cncn1     4.5
4  OC1CCCN(Cc2ccc(-c3cccc(-c4nc5ccccc5[nH]4)c3)cc2)C1 (centres undefined)    2.79
5  O=C(NC1CCN(c2ccnc3cc(Cl)ccc23)C1)c1ccccc1F (centres undefined)    1.93
6     CN(C)c1ccc(N2C(N)=NC(N)=NC23CCCC3)cc1   -0.69
7  COc1ccc(N2CCN(CCCNC(=O)c3ccc(NC(=O)c4cc(Cl)cc(Cl)c4)cc3)CC2)c(OC)c1    4.49
8  Cc1cccc2nc(-c3ccc(-c4cccc(NC(=O)C(C)CN(C)C)c4)cc3)[nH]c12 (centres undefined)    8.52

Please supply inhibition for each of the following items, keeping them in order.
1. CCN(CCNS(C)(=O)=O)c1ccc(N)c(C)c1
2. CCCC(CC)n1ccc2c3c(N)nc(N)nc3ccc21 (centres undefined)
3. CCC[C@@H]([C@@H](CC1CCCCC1)C(=O)N[C@H](C(=O)Nc1nccc(N)n1)C(C)(C)C)N(O)C=O
4. CC(CCc1ccccc1)NCC(O)c1cccc([N+](=O)[O-])c1 (centres undefined)
5. CCN(CC)CCCNc1nccc(N2CCc3ncnc(Nc4ccc(OCc5cccc(F)c5)c(Cl)c4)c3C2)n1
6. COC(=O)c1cccc(CN(CCC(O)(C(F)(F)F)C(F)(F)F)C(=O)CC2CCCC2)c1
7. Cc1ccc2nc(-c3ccc(/C=C/C(=O)NC4CCN(Cc5ccccc5)CC4)cc3)[nH]c2c1C

1.65
70.5
3.28
-0.26
7.17
3.39
8.42

Please supply inhibition for each of the following items, keeping them in order.
1. CC(C)n1ncc2c(C(=O)N3CCCCCC3)cc(-c3ccccc3)nc21
2. Cc1cc(C(=O)CN2C(=O)NC3(CCOc4ccccc43)C2=O)c(C)n1Cc1ccco1 (centres undefined)
3. O=C(/C=C/c1ccccc1Cl)NC1CCC(CN2CCC(c3c[nH]c4ccncc34)CC2)CC1 (centres undefined)
4. CCCCOc1c(CCNCCCCNCCc2cc(OC)c3ccccc3c2OCCCC)cc(OC)c2ccccc12
5. O=C(NCCN1CCOCC1)c1ccc(CNC(=O)c2ccc(O)c(-c3ccc(Cl)c(Cl)c3)c2)cc1
6. CCOc1ccc(C(=O)Nc2cc(Cl)ccc2O)cc1Cl

-0.35
5.85
-0.19
4.98
1.82
-1.03

Please supply inhibition for each of the following items, keeping them in order.
1. CN1CCN(c2ccnc3ccc(NC(=O)Cc4ccc(Br)c5ccccc45)cc23)CC1
2. CCn1c(-c2nonc2N)nc2c(-c3cccc(NC(=O)Nc4cccc(C(F)(F)F)c4)c3)ncc(OCCCN)c21

1: 0.81; 2: 2.47
